Values were extracted from ChEMBL document CHEMBL1201861.

# Tested on: KM12;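 note: KM12 cell growth inhibition, read out with a cell viability assay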
# method notes: cells
# Format: functional, cell-based, Homo sapiens
# condition set: Homo sapiens, KM12
# Description: SANGER: Inhibition of human KM12 cell growth in a cell viability assay.
readout: IC50

INPUT: Tell me reported IC50 for Cc1ccc(Nc2nccc(N(C)c3ccc4c(C)n(C)nc4c3)n2)cc1S(N)(=O)=O , tested with KM12.
OUTPUT: > 8 µM

INPUT: Input Cn1cc(C2=C(c3ccc(Cl)cc3Cl)C(=O)NC2=O)c2ccccc21
OUTPUT: > 10 µM

INPUT: Input CC(=O)O[C@@H]1[C@@H](OC(C)=O)[C@@H](O)[C@H](Oc2c(-c3ccc(O)cc3)oc3cc(O)cc(O)c3c2=O)O[C@H]1C
OUTPUT: > 10 µM
